Provenance of the data: the supplement of paper PMC12420376

- Test system: KURAMOCHI
- ASSAY: drug sensitivity score (DSS2) on cancer cell count; higher = more sensitive; extreme values may be limits of the assay
- CONDITION DETAILS: co-cultured fibroblast: WI38; 72 h
Assignment: determine reported drug sensitivity score for the given compounds.
Give bare numbers, in DSS.

Examples from the recorded data:
>>> value("CC(C)n1nc(-c2ccc3oc(N)nc3c2)c2c(N)ncnc21")
12.4
>>> value("C[C@H](Nc1ncnc2nc[nH]c12)c1cc2cccc(Cl)c2c(=O)n1-c1ccccc1")
0.5
>>> value("Cc1cn(-c2cc(NC(=O)c3ccc(C)c(Nc4nccc(-c5cccnc5)n4)c3)cc(C(F)(F)F)c2)cn1")
8
>>> value("Cn1nnc2c(C(N)=O)ncn2c1=O [Temozolomide]")
2.2

// each compound listed below needs its drug sensitivity score
1. S=c1[nH]cnc2nc[nH]c12
2. CCCCC(=O)OCC(=O)[C@]1(O)Cc2c(O)c3c(c(O)c2[C@@H](O[C@H]2C[C@H](NC(=O)C(F)(F)F)[C@H](O)[C@H](C)O2)C1)C(=O)c1c(OC)cccc1C3=O
3. CCN(c1cc(-c2ccc(CN3CCOCC3)cc2)cc(C(=O)NCc2c(C)cc(C)[nH]c2=O)c1C)C1CCOCC1
4. O=C(O)CC1CC(c2ccccc2)=NO1 (stereo not drawn)

[0.3, 17.1, 0, 0]
